Ref: PubChem BioAssay AID488890

assay: growth inhibition of non-replicating M. tuberculosis (AID 488890); settings: Mycobacterium tuberculosis non-replicating, at 25 µM, stronger effect = higher value;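 note: plate controls were DMSO cells for no effect and high antibiotic wells for full effect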
The whole screen tested about 320,000 compounds, of which about 1,300 (0.41%) were called active. Another 3% or so got no clear call; they are omitted. A selection follows. Measured potencies and affinities stand elsewhere.
measurement_label: inhibition
Please answer using a numeric value trailed by its unit.

For this compound ( "Cc1cc(-c2nnco2)c(C)n1-c1ccccc1" ), measured inhibition is 11.1%

***
Form: compound = COc1ccc(C2C(C(=O)NCCN3CCOCC3)c3ccccc3C(=O)N2C2CCCCC2)cc1 (stereo unspecified) ; inhibition = 28.1%

compound "Cc1ccc(NC(=S)N2CCC(NC(=O)C3CCCCC3)CC2)cc1C" , inhibition observed: -8.16%

Just so you know, measured inhibition for "O=C(CNC(=O)c1cccs1)NCC(=O)OCc1ccc(Cl)cc1" came out at 15.7%

Reported inhibition for "COc1ccc(-n2nc3cc(C)c(NC(C)=O)cc3n2)cc1" was 1.69%

Lab book: inhibition of "Cc1ncc(CO)c(CNc2ccc(Oc3ccccc3)cc2)c1O" noted as 41.9%

Briefly, inhibition measured for "FC(F)(F)c1cc(-c2ccco2)nc(N2CCN(c3ccccc3)CC2)n1" : -1.1%

So, "O=[N+]([O-])c1ccc(OCCCCN2CCc3ccccc3C2)cc1" ? Its inhibition was 57.5%

Entry CCOC(=O)c1c(C)c(C(=O)NC(C)COC)c(C)n1CC (stereo unspecified) , inhibition reported as -4.24%

The measured inhibition associated with "COc1ccc2c(c1)nc(SCC(=O)C(C)(C)C)n2C" reads 7.17%

"O=S(=O)(Nc1ccc2cn[nH]c2c1)c1ccc(C(F)(F)F)cc1" has a reported inhibition of 21.1%
